- Study target: UniProtKB Q96P20
- Sequence (Q96P20 whole entry): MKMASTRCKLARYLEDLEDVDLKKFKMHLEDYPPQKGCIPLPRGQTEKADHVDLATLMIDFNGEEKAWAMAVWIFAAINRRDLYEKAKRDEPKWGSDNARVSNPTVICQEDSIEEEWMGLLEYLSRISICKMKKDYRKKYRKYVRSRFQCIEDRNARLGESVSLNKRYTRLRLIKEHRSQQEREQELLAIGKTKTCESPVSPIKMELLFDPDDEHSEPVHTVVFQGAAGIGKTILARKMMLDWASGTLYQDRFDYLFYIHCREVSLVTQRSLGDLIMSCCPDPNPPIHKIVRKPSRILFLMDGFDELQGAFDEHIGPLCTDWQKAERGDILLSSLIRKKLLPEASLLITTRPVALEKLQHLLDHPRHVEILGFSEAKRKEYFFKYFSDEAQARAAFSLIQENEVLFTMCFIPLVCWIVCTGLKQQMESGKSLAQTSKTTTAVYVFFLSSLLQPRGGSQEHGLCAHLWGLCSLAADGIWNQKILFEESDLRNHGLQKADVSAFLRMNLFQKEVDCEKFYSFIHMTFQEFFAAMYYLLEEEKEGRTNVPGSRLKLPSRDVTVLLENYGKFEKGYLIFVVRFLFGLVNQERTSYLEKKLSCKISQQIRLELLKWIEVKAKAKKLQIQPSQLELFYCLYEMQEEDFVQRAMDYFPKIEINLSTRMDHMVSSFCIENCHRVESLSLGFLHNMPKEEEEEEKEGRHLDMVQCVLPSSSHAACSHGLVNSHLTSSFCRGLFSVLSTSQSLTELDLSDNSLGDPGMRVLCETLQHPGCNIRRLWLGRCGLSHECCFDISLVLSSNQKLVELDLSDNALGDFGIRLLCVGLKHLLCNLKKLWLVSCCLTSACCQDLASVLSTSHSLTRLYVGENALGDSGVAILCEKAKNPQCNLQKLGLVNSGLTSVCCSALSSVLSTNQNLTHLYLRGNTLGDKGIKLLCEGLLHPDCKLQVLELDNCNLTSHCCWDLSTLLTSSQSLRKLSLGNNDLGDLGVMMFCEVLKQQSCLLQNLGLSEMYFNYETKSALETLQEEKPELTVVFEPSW
- Test details: Human NLRP3 speck formation assay (Test A), nigericin triggered ASC-speck formation in ASC-GFP reporter monocytes
Reported pEC50 values follow for various molecules
Note: pEC50 values are expressed as the negative base-10 logarithm of concentration in M.

C[C@@]1(O)CCC[C@@H](Nc2nnc(-c3ccc(C(F)(F)F)cc3O)c3ccncc23)C1    7.54
Oc1cc(C(F)(F)F)ccc1-c1nnc(N[C@H]2C[C@H](O)C2)c2ccccc12    6.61
Oc1cc(C(F)(F)F)ccc1-c1nnc(N[C@@H]2CCCCC[C@H]2O)c2ccccc12 (racemic)    6.25

We now examine a further molecule.
I am curious: what pEC50 value has been reported for OC[C@@H](O)CNc1nnc(-c2c(O)cc(C(F)(F)F)cc2F)c2ccccc12 ? 6.74
